Property: composite z-score; scope: individual compounds
biological target: Dihydroorotate dehydrogenase (quinone), mitochondrial (Plasmodium falciparum (isolate 3D7)); assay: PfDHODH enzyme inhibitors, primary screen, biochemical, C-terminal His tag, absorbance 600 nm (AID 1175); details: DCIP absorbance 600 nm, higher = more signal, called active from +8 up or from −8 down;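 further: recombinant parasite enzyme with a five histidine tag at its C terminus; test concentration not given here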

{"columns": ["COMPOUND", "composite z-score"],
 "data": [
  ["CCCCCN1CC=CC23O[C@@H]4C=CCCOC(=O)C4[C@H]2C(=O)N(CCCCCO)[C@@H]3C1=O (some centres not stated)", -0.185],
  ["C=C(CCCC)/C(=C/C[C@H](OC(=O)c1ccncc1)c1ccccc1OCCO)c1cnc2ccccc2c1", -2.03],
  ["C=C[C@H](CO[Si](CC)(CC)CC)N(Cc1ccc(OC(C)=O)c(OC)c1)S(=O)(=O)c1ccc(Br)cc1", -1.38],
  ["C[N+](C)(C)CCCCCCNC(=O)[C@@H]1C[C@@H]2C(=O)N[C@@H](Cc3ccccc3)C(=O)N2[C@@H]1c1cccc(OCCO)c1", -0.0631],
  ["COC(=O)[C@@]1(Cc2ccc(OC)cc2)[C@H]2c3cc(C(=O)N(C)C)n(CCc4ccccn4)c3C[C@H]2CN1C(=O)c1ccccc1", -0.0595],
  ["COc1ccc(C#Cc2ccc3c(c2)[C@]2(C(=O)N3)[C@H](c3ccccc3OCCO)N3[C@H](c4ccccc4)[C@H](c4ccccc4)OC(=O)[C@H]3[C@@H]2C(=O)Nc2nc3ccccc3s2)cc1", -30.7],
  ["COCCOC(=O)N1C(=O)[C@@]2(c3cc(C#Cc4ccc(OC)cc4)ccc31)[C@H](c1ccccc1OCCO)N1[C@H](c3ccccc3)[C@H](c3ccccc3)OC(=O)[C@H]1[C@@H]2C(=O)NC[C@H](O)c1ccccc1", -1.22]
]}

###

assay: inhibitors of hydroxyurea-induced Chk1 phosphorylation, primary screen, imaging, HeLa, phospho-Chk1 antibody, percent positive cells (AID 1186); conditions: hydroxyurea-induced phospho-Chk1 immunofluorescence imaging, higher = more signal
Property: z-score; scope: individual compounds
PARAMETER: z-score

{"columns": ["RECORD SMILES", "RESULT VALUE"],
 "data": [
  ["[N-]=[N+]=Nc1ccccc1[C@@H]1OC(c2ccc(OCCCO)cc2)=N[C@]1(CCS(=O)(=O)c1ccccc1)C(N)=O", -0.154],
  ["C=C(CCCC)C(=O)CC[C@@H](OC(=O)c1ccccc1-c1ccccc1C(=O)O)c1ccc(OCCO)cc1", 0.431],
  ["CCCCCCc1nc(-c2ccc(OC)nc2)cc2c1[Si](C(C)C)(C(C)C)O[C@H]2c1ccccc1", -0.732],
  ["C=CCN1C(=O)[C@@]2(CC=C)N=C(c3ccc(OCCCO)cc3)O[C@H]2c2ccccc21", -0.772]
]}

###

experiment: CREB reporter modulators without forskolin, primary screen, cell-based, PC12, CRE-LacZ reporter, unstimulated (AID 1145); details: no forskolin, luminescence, 4.5 h, higher = more signal, called active from +8 up or from −8 down
Property: z-score; scope: individual compounds
PARAMETER: z-score

{"columns": ["COMPOUND", "PARAMETER", "RESULT VALUE"],
 "data": [
  ["C=CCOC(=O)[C@@H]1[C@H]2C(=O)O[C@H](c3ccccc3)[C@H](c3ccccc3)N2[C@H](c2ccc(OCCOC(=O)[C@@H]3C[C@@H]4C(=O)NCC(=O)N4[C@@H]3c3ccc(O)cc3)cc2)[C@@]12C(=O)Nc1ccc(I)cc12", "z-score", -0.13],
  ["COCCCNC(=O)[C@@H]1c2ccccc2C(=O)N(Cc2ccccc2Cl)[C@H]1c1ccc(CO)cc1", "z-score", -0.179],
  ["COC(=O)c1c(CC[C@@H](CO)NC(=O)NCCn2cc(C3(O)CCCC3)nn2)oc(C(C)=O)c1C(=O)OC", "z-score", 0.978],
  ["CCCCN1CC=CC23O[C@@H]4C=CCCOC(=O)C4[C@H]2C(=O)N(CCCCCCO)[C@@H]3C1=O (stereo partly drawn)", "z-score", 0.333],
  ["COc1ccc(C#Cc2ccc3c(c2)[C@]2(C(=O)N3)[C@H](C(=O)Nc3nc4ccccc4s3)[C@H]3C(=O)O[C@H](c4ccccc4)[C@H](c4ccccc4)N3[C@@H]2c2ccc(O)cc2)cc1", "z-score", 0.0653],
  ["CC(C)C(=C=CC[C@H](O)c1ccc(OCCO)cc1)CCO", "z-score", 3.49],
  ["COc1cc2c(cc1O)C(c1cccs1)N(C)CC2 (stereo not drawn)", "z-score", -0.374],
  ["C=CCC(OC(C)=O)[C@@H]1[C@@H](N(Cc2ccc(-c3ccccc3)cc2)C(=O)c2ccc(-c3ccccc3)cc2)c2cc(OCCCO)ccc2N1C(=O)Cc1ccc2ccccc2c1 (stereo partly drawn)", "z-score", 0.208],
  ["COC(=O)C(CC#Cc1ccc2c(c1)[C@]1(C(=O)N2)[C@H](C(=O)Nc2nc3ccccc3s2)[C@H]2C(=O)O[C@H](c3ccccc3)[C@H](c3ccccc3)N2[C@@H]1c1ccc(O)cc1)C(=O)OC", "z-score", 0.155],
  ["CO[C@H]1O[C@H](CO)[C@@H](OC(=O)Nc2ccc(C(F)(F)F)cc2)[C@H](OC(=O)Nc2ccc3c(c2)OCO3)[C@@H]1OC(=O)Nc1ccc2c(c1)OCO2", "z-score", 0.652],
  ["NCCCCCCNC(=O)[C@@H]1C[C@@H]2C(=O)NCC(=O)N2[C@@H]1c1ccc(O)cc1", "z-score", -1.07],
  ["COC(=O)C(CC#Cc1ccc2c(c1)[C@]1(C(=O)N2)[C@H](c2ccc(OCCO)cc2)N2[C@H](c3ccccc3)[C@H](c3ccccc3)OC(=O)[C@H]2[C@@H]1C(=O)N1CCc2cc(OC)c(OC)cc2C1)C(=O)OC", "z-score", -0.0688],
  ["COc1ccc([Si](C)(C)[C@H]2[C@H](CCO)O[C@@]3(C(=O)N(Cc4ccc(N(C=O)c5ccccc5)cc4)c4ccccc43)[C@@H]2C)cc1", "z-score", 1.92]
]}

###

test: HepG2 liver cancer cell viability effects, profiling panel, resazurin fluorescence, 24 h, PK04 Diversity Set (AID 1172); details: higher = more signal; further: test concentration not given here
Note to self: values exactly at -0.09 are Met. So z-score at or above -0.09 is Met, below is Not met.

{"columns": ["COMPOUND", "QUALITATIVE LABEL"],
 "data": [
  ["COC(=O)C(CC#Cc1ccc2c(c1)[C@]1(C(=O)N2)[C@H](c2ccc(OCCO)cc2)N2[C@H](c3ccccc3)[C@H](c3ccccc3)OC(=O)[C@H]2[C@@H]1C(=O)N1CCc2cc(OC)c(OC)cc2C1)C(=O)OC", "Met"],
  ["O=C1c2ccccc2[C@](Cc2ccccc2I)(C(=O)NCC(F)(F)F)[C@H](c2ccc(CO)cc2)N1Cc1ccccc1Cl", "Met"],
  ["Oc1ccc2cc[n+](Cc3sc4ccccc4c3Cl)cc2c1", "Not met"],
  ["C=CCNC(=O)[C@@H]1[C@H]2C(=O)O[C@H](c3ccccc3)[C@H](c3ccccc3)N2[C@H](c2ccc(O)cc2)[C@@]12C(=O)Nc1ccc(C#CCNC(N)=O)cc12", "Not met"],
  ["O[C@@H](Cc1ccccc1)[C@H]1C2C=CCCC=C2CN1Cc1cccc(Cl)c1 (stereo partly drawn)", "Met"],
  ["CCCCCN1CC=CC23O[C@@H]4C=CCCOC(=O)C4[C@H]2C(=O)N(CCCCCO)[C@@H]3C1=O (stereo partly drawn)", "Met"],
  ["CC(C)C[C@@H]1NC(=O)[C@@H]2C[C@H](C(=O)O)[C@H](c3cccc(OCCO)c3)N2C1=O", "Not met"],
  ["C=CCN1C(=O)[C@@]2(Cc3ccccc31)N=C(c1ccc(OCCCO)cc1)O[C@H]2c1ccccc1", "Not met"]
]}

###

experiment: modulators of S6 phosphorylation in cells, primary screen, cell-based, A549, cytoblot, luminescence, serum-stimulated (AID 1158); settings: A549 phospho-S6 cytoblot, 5 h, higher = more signal;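 further: serum-stimulated A549 lung adenocarcinoma cells; signal is phosphorylated S6 detected by cytoblot immunostaining with HRP secondary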
Note to self: values exactly at -0.1 are Yes. So z-score at or above -0.1 is Yes, below is No.

{"columns": ["COMPOUND", "QUALITATIVE LABEL"],
 "data": [
  ["[N-]=[N+]=NCc1ccccc1C[C@]1(C(=O)N2CCCCC2)N=C(c2ccc(OCCCO)cc2)O[C@H]1c1ccccc1N=[N+]=[N-]", "Yes"],
  ["CN1C(=O)C2C=CC(C(O)C3CC=CCC3)N(N(c3ccccc3)c3ccccc3)C2C1=O (stereo not drawn)", "No"],
  ["C=CCOC(=O)[C@H]1[C@@H]2C(=O)O[C@@H](c3ccccc3)[C@@H](c3ccccc3)N2[C@@H](c2ccc(OCCOC(=O)[C@@H]3C[C@@H]4C(=O)N[C@@H](CC(C)C)C(=O)N4[C@@H]3c3ccc(O)cc3)cc2)[C@]12C(=O)Nc1ccccc12", "No"],
  ["CCC[C@@H]1C[C@@]1(CCC)[C@@H](NS(=O)(=O)c1cccc2cccnc12)c1ccc(Cl)cc1", "Yes"],
  ["CC(C)[Si](C#Cc1ccc(Oc2ccccc2)cc1)(O[Si](C#Cc1ccc(Oc2ccccc2)cc1)(C(C)C)C(C)C)C(C)C", "Yes"],
  ["COC(=O)[C@@]1(Cc2ccc(OC)cc2)[C@H]2c3cc(C(=O)N4CCCC4)n(Cc4ccc(O)c(OC)c4)c3C[C@H]2CN1C(=O)c1ccccc1", "Yes"],
  ["COc1ccc(CCNC(=O)[C@@]2(Sc3ccc(C)cc3)CC(=O)N(C3Cc4ccccc4C3)[C@@H]2c2ccc(CO)cc2I)cc1", "No"],
  ["CCCc1cc2c(n1Cc1cc(F)cc(F)c1)C(C)C1CN(C(=O)c3ccccc3)C(C)(C(=O)OC)C21 (stereo not drawn)", "No"],
  ["CN(C)CCCCCCNC(=O)[C@H]1C[C@H]2C(=O)N[C@@H](CCCCN)C(=O)N2[C@H]1c1cccc(OCCO)c1", "No"],
  ["COC(=O)[C@@]1(Cc2ccc(F)cc2)[C@H]2c3cc(C(=O)N(C)C)n(Cc4ccc(Cl)c(C(F)(F)F)c4)c3C[C@H]2CN1C(=O)c1ccccc1", "No"],
  ["COc1cccc(-c2cccc(=O)o2)c1", "No"],
  ["COCCOC(=O)N1C(=O)[C@@]2(c3cc(C#CCC(C(=O)OC)C(=O)OC)ccc31)[C@H](c1ccccc1OCCO)N1[C@H](c3ccccc3)[C@H](c3ccccc3)OC(=O)[C@H]1[C@@H]2C(=O)N1CCN(c2ncccn2)CC1", "No"],
  ["CO[C@H]1O[C@H](CO)[C@@H](OC(=O)Nc2ccc(Oc3ccccc3)cc2)[C@H](OC(=O)Nc2ccc3c(c2)OCO3)[C@H]1OC(=O)Nc1ccc2c(c1)OCO2", "Yes"]
]}
